Experiment: collision cross section in nitrogen (drift tube, single-field); higher = larger gas-phase ion size;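 note: chemical standards at 10 µM analysed by drift tube IMS-QTOF MS in about 3.95 torr nitrogen, mean of duplicate injections differing ≤1%, mass error below 10 ppm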
Settings: ion type: [M-H]; ion source: ESI; ion mode: Negative
measured-quantity: collision cross section in nitrogen

Solved cases below.
// returns reported collision cross section in nitrogen for input CCCCCCCCCCCSCC(=O)O
162.7 Å²

// returns reported collision cross section in nitrogen for input Nc1nc(Cl)nc2c1ncn2[C@H]1C[C@H](O)[C@@H](CO)O1
159.5 Å²

// returns reported collision cross section in nitrogen for input CCc1c(C(=O)O)c(=O)cnn1-c1ccc(Cl)cc1
160.5 Å²

Hi! Can you tell me collision cross section in nitrogen for each of these molecules?
1. COC(=O)c1sccc1S(N)(=O)=O [Methyl 3-sulfamoylthiophene-2-carboxylate]
2. O=c1[nH]c2ccc(Cl)cc2o1 [6-Chloro-2,3-dihydrobenzoxazol-2-one]

1: 141.1 Å²; 2: 125.6 Å²

Sourced from the supplement of paper PMC12317010
